- system under test: FGFR4 (h) (Homo sapiens)
- assay notes: FGFR4 (enzymatic assay), TR-FRET
- Type: biochemical
- condition context: FGFR 4 pIC50, enzymatic assay
Listed next: entries and their corresponding IC50.

{"compound": "COc1cc(OC)c(F)c(N(CC(=O)O)c2ccc3ncc(-c4cnn(C)c4)nc3n2)c1 [Compound 231]", "endpoint unit": "nM", "IC50": 17.8}
{"compound": "COc1cc(/N=c2\\ccc3ncc(-c4cnn(C)c4)nc3n2Cc2cn[nH]c2)c(F)c(OC)c1 [Compound 155]", "endpoint unit": "nM", "IC50": 0.324}
{"compound": "COc1cc(OC)cc(N(Cc2nn[nH]n2)c2ccc3ncc(-c4cnn(C)c4)nc3n2)c1 [Compound 197]", "endpoint unit": "nM", "IC50": 34.7}
{"compound": "COc1cc(/N=c2\\ccc3ncc(-c4cnn(C)c4)nc3n2CC2CCOC2)c(F)c(OC)c1 (single isomer, unassigned) [Compound 169]", "endpoint unit": "nM", "IC50": 0.977}
{"compound": "COc1cc(OC)c(F)c(N(CC2CCC(=O)N2CCO)c2ccc3ncc(-c4cnn(C)c4)nc3n2)c1 (stereo not drawn) [Compound 194]", "endpoint unit": "nM", "IC50": 44.7}
{"compound": "COc1cc(OC)c(F)c(N(CC(=O)N2CCNCC2)c2ccc3ncc(-c4cnn(C)c4)nc3n2)c1 [Compound 262]", "endpoint unit": "nM", "IC50": 55}
{"compound": "COc1cc(OC)cc(N(Cc2noc(C)n2)c2ccc3ncc(-c4cnn(C)c4)nc3n2)c1 [Compound 186]", "endpoint unit": "nM", "IC50": 12}
{"compound": "COc1cc(OC)cc(N(Cc2ncc[nH]2)c2ccc3ncc(-c4ccn(C)c4)nc3n2)c1 [Compound 198]", "endpoint unit": "nM", "IC50": 0.661}
{"compound": "COc1cc(OC)c(F)c(N(CC(=O)c2cnn(C)c2)c2ccc3ncc(-c4cnn(C)c4)nc3n2)c1 [Compound 225]", "endpoint unit": "nM", "IC50": 36.3}

---

- system under test: Ba/F3-FGFR4-transfected cells (Homo sapiens)
- Sequence (P22455 whole entry, change not shown): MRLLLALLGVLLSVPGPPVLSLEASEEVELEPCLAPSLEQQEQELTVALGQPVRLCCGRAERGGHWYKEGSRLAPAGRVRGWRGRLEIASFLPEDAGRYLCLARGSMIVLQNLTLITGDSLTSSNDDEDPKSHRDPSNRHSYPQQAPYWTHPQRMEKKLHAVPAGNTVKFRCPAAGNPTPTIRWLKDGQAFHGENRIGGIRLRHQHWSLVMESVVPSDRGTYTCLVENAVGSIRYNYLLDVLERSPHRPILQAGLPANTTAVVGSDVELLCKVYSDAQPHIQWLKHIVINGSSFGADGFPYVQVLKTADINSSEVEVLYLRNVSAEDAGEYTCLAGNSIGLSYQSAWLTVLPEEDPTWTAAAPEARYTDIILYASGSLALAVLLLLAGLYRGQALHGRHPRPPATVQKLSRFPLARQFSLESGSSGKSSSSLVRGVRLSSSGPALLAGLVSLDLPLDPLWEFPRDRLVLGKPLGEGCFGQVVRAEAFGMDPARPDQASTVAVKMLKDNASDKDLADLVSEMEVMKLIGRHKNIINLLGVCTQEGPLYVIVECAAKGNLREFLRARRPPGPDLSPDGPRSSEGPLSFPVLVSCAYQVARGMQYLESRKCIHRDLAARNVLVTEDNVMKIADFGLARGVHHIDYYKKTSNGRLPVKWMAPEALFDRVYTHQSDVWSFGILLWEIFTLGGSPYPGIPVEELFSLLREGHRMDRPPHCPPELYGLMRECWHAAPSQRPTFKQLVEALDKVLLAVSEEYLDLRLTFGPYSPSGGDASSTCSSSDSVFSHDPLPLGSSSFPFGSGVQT
- assay notes: Ba/F3-FGFR4 cellular proliferation assay, Alamar Blue
- Type: cell-based
Where a name gives a salt, the structure may show the parent alone.
// reported BAF3-FGFR4 pIC50 for each item listed
result type: BAF3-FGFR4 pIC50

{"compound": "COc1cc(/N=c2\\ccc3ncc(-c4cnn(C)c4)nc3n2Cc2ccnn2C)c(F)c(OC)c1 [Compound 114]", "result type": "BAF3-FGFR4 pIC50", "value": 7.14}
{"compound": "COc1cc(OC)c(F)c(N(Cc2nccn2C)c2ccc3ncc(-c4cnn(C)c4)nc3n2)c1 [Compound 131]", "result type": "BAF3-FGFR4 pIC50", "value": 6.62}
{"compound": "COc1cc(OC)c(F)c(N(Cc2cnn(C)c2)c2ccc3ncc(-c4cnn(C)c4)nc3n2)c1 [Compound 195]", "result type": "BAF3-FGFR4 pIC50", "value": 7.33}
{"compound": "COc1cc(OC)cc(N(Cc2ncc[nH]2)c2ccc3ncc(-c4ccn(C)c4)nc3n2)c1 [Compound 198]", "result type": "BAF3-FGFR4 pIC50", "value": 8.05}
{"compound": "COc1cc(OC)c(F)c(N(Cc2nc[nH]n2)c2ccc3ncc(-c4cnn(C)c4)nc3n2)c1 [Compound 86]", "result type": "BAF3-FGFR4 pIC50", "value": 7.33}
{"compound": "CNCCn1ccnc1CN(c1ccc2ncc(-c3cnn(C)c3)nc2n1)c1cc(OC)cc(OC)c1F [Compound 289]", "result type": "BAF3-FGFR4 pIC50", "value": 6.07}
{"compound": "COc1cc(OC)cc(N(Cc2ncc[nH]2)c2ccc3ncc(-c4cnn(C)c4)nc3n2)c1 [24-phosphate salt]", "result type": "BAF3-FGFR4 pIC50", "value": 7.47}

---

- system under test: FGFR4 (h) (Homo sapiens, UniProt P22455)
- Sequence (P22455 22-802): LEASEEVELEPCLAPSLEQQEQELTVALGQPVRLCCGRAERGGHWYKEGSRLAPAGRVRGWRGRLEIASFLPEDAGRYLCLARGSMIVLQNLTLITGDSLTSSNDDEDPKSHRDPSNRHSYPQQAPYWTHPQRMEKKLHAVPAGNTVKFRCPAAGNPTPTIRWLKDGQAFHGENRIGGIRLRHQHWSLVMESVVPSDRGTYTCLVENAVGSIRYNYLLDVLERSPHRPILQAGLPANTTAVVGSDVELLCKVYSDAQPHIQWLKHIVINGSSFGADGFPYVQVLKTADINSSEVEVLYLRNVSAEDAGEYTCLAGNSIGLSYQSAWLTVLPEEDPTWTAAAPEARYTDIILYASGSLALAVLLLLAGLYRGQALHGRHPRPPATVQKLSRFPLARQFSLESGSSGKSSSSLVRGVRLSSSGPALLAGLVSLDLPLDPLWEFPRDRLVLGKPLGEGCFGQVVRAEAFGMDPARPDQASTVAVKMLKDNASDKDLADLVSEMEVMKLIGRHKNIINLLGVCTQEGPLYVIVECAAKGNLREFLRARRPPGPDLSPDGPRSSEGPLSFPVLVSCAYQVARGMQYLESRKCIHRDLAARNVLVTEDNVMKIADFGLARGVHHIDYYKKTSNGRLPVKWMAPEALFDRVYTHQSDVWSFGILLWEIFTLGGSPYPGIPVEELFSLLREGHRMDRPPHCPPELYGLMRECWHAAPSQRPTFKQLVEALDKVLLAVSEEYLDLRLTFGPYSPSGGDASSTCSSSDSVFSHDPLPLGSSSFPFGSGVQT
- assay notes: FGFR4 (enzymatic assay), TR-FRET
- Assay type: biochemical
- condition context: FGFR 4 pIC50, enzymatic assay
pIC50: −log10 of the molar value.

{"molecule": "COc1cc(/N=c2\\ccc3ncc(-c4cnn(C)c4)nc3n2CC2CCC(=O)N2)cc(OC)c1 (stereo not shown)", "pIC50": 8.09}
{"molecule": "COc1cc(OC)c(F)c(N(CC2COC2)c2ccc3ncc(-c4cnn(C)c4)nc3n2)c1", "pIC50": 8.28}
{"molecule": "COc1cc(OC)c(F)c(N(Cc2nc(CO)c[nH]2)c2ccc3ncc(-c4cnn(C)c4)nc3n2)c1", "pIC50": 8.73}
{"molecule": "COc1cc(OC)cc(N(Cc2nnc(NCCO)o2)c2ccc3ncc(-c4cnn(C)c4)nc3n2)c1", "pIC50": 6.98}

---

- system under test: FGFR2 (h) (Homo sapiens)
- Sequence (P21802 22-821): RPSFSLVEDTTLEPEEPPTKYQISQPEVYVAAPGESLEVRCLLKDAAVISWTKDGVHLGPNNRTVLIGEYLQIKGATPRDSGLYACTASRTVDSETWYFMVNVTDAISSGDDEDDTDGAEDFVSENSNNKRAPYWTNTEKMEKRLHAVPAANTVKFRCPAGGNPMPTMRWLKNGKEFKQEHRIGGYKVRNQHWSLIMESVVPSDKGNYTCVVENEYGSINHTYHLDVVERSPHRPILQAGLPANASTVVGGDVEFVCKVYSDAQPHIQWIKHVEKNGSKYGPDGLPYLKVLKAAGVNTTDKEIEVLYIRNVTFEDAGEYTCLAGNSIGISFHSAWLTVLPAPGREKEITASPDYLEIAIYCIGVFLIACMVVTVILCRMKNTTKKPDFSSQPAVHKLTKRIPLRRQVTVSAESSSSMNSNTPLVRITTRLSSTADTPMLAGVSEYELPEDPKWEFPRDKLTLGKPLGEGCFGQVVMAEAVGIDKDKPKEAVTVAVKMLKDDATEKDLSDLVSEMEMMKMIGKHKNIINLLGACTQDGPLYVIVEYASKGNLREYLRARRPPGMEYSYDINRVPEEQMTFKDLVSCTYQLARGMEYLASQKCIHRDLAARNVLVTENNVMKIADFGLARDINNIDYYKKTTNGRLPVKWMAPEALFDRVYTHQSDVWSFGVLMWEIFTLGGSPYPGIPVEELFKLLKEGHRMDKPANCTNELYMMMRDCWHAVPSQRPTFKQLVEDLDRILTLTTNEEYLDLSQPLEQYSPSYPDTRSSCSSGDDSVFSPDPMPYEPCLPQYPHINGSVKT
- assay notes: FGFR2 (enzymatic assay), TR-FRET
- Type: biochemical
- condition context: enzymatic assay; read-out: FGFR 2 pIC50 (converted)

{"compound": "Cn1cc(-c2cnc3ccc(N(Cc4ncc[nH]4)c4c(F)c(F)cc(F)c4F)nc3n2)cn1", "IC50, nM": 1.91}
{"compound": "COc1cc(/N=c2\\ccc3ncc(-c4cnn(C)c4)nc3n2CCCN2CCCC2=O)cc(OC)c1", "IC50, nM": 1.23}
{"compound": "COc1cc(OC)cc(N(Cc2nn[nH]n2)c2ccc3ncc(-c4cnn(C)c4)nc3n2)c1", "IC50, nM": 11.2}
{"compound": "COc1cc(OC)c(F)c(N(CCS(C)(=O)=O)c2ccc3ncc(-c4cnn(CCS(C)(=O)=O)c4)nc3n2)c1", "IC50, nM": 2.24}
{"compound": "COc1cc(OC)c(F)c(N(Cc2cn[nH]c2)c2ccc3ncc(-c4cnn(C)c4)nc3n2)c1", "IC50, nM": 0.794}
{"compound": "COc1cc(OC)c(F)c(N(CCNC(C)=O)c2ccc3ncc(-c4cnn(C)c4)nc3n2)c1", "IC50, nM": 2.95}
{"compound": "COc1cc(OC)cc(N(Cc2ncc[nH]2)c2ccc3ncc(N4CCOCC4)nc3n2)c1", "IC50, nM": 1.82}
{"compound": "COc1cc(OC)c(C)c(N(Cc2ncc[nH]2)c2ccc3ncc(-c4cnn(C)c4)nc3n2)c1", "IC50, nM": 3.8}
{"compound": "COc1cc(OC)c(F)c(/N=c2\\ccc3ncc(-c4cnn(C)c4)nc3n2CCN(C2COC2)C2COC2)c1F", "IC50, nM": 1.82}
{"compound": "COc1cc(OC)c(F)c(N(CCO)c2ccc3ncc(-c4cnn(CCO)c4)nc3n2)c1", "IC50, nM": 1.7}
{"compound": "CCOCc1c[nH]c(CN(c2ccc3ncc(-c4cnn(C)c4)nc3n2)c2cc(OC)cc(OC)c2F)n1", "IC50, nM": 4.17}
{"compound": "COc1cc(OC)c(F)c(N(Cc2n[nH]c(=O)o2)c2ccc3ncc(-c4cnn(C)c4)nc3n2)c1", "IC50, nM": 2.14}
{"compound": "COc1cc(/N=c2\\ccc3ncc(-c4cnn(C)c4)nc3n2CCN)c(F)c(OC)c1", "IC50, nM": 2.19}
{"compound": "COc1cc(OC)c(F)c(N(CC2CCC(=O)N2C)c2ccc3ncc(-c4cnn(C)c4)nc3n2)c1 (stereo not drawn) [Compound 161]", "IC50, nM": 10}

---

Catalogue of molecules with associated BAF3-FGFR3 (MIN IL3) pIC50
- system under test: Ba/F3-FGFR3-transfected cells (Homo sapiens)
- Construct: BAF3-FGFR3 (MIN IL3) pIC50; other: minus IL3
- Sequence (P22607 whole entry, change not shown): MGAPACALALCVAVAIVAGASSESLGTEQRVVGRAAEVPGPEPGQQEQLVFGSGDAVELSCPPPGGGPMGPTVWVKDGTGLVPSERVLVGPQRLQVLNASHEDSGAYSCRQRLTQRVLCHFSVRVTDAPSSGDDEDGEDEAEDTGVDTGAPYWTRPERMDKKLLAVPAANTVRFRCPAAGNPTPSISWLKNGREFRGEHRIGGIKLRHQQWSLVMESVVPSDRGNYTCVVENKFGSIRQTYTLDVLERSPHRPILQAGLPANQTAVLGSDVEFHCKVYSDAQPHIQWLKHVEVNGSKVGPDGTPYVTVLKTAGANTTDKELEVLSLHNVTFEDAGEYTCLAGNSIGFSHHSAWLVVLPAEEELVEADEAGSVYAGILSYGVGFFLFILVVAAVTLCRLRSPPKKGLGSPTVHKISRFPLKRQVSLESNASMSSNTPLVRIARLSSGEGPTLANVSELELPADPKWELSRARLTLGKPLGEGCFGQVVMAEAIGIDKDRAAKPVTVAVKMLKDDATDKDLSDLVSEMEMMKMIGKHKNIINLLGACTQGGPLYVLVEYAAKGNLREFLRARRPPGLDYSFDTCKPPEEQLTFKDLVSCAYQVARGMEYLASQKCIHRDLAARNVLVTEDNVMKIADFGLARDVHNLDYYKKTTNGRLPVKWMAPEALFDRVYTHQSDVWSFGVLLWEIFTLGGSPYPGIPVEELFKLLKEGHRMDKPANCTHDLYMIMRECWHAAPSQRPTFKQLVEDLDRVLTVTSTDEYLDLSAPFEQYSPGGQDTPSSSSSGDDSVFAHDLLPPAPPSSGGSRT
- assay notes: Ba/F3-FGFR3 (minus IL3) cellular proliferation assay, Alamar Blue
- Type: cell-based

{"molecule": "COc1cc(OC)cc(N(Cc2ncc[nH]2)c2ccc3ncc(N4CCOCC4)nc3n2)c1 [Compound 293]", "BAF3-FGFR3 (MIN IL3) pIC50": 7.59}
{"molecule": "COc1cc(OC)cc(N(Cc2nc(OC)cc(OC)n2)c2ccc3ncc(-c4cnn(C)c4)nc3n2)c1 [Compound 174]", "BAF3-FGFR3 (MIN IL3) pIC50": 5.57}
{"molecule": "COc1cc(OC)c(F)c(N(Cc2ncc[nH]2)c2ccc3ncc(-c4cnn(CCS(C)(=O)=O)c4)nc3n2)c1 [Compound 264]", "BAF3-FGFR3 (MIN IL3) pIC50": 8.09}
{"molecule": "CNCCn1ccnc1CN(c1ccc2ncc(-c3cnn(C)c3)nc2n1)c1cc(OC)cc(OC)c1F [Compound 289]", "BAF3-FGFR3 (MIN IL3) pIC50": 6.92}
{"molecule": "COc1cc(OC)c(F)c(N(Cc2c[nH]cn2)c2ccc3ncc(-c4cnn(C)c4)nc3n2)c1 [Compound 41]", "BAF3-FGFR3 (MIN IL3) pIC50": 8.08}
{"molecule": "COc1cc(OC)c(F)c(N(CC2CC2)c2ccc3ncc(-c4cnn(C)c4)nc3n2)c1F (single isomer, unassigned) [Compound 268]", "BAF3-FGFR3 (MIN IL3) pIC50": 7.74}
{"molecule": "COc1cc(OC)c(F)c(N(CCCN2CCCC2=O)c2ccc3ncc(-c4cnn(C)c4)nc3n2)c1F [Compound 56]", "BAF3-FGFR3 (MIN IL3) pIC50": 7.87}
